Each entry below carries its recorded pEC50.
# Study system: Glucose-dependent insulinotropic receptor (Homo sapiens)
# Sequence (Q8TDV5 whole entry): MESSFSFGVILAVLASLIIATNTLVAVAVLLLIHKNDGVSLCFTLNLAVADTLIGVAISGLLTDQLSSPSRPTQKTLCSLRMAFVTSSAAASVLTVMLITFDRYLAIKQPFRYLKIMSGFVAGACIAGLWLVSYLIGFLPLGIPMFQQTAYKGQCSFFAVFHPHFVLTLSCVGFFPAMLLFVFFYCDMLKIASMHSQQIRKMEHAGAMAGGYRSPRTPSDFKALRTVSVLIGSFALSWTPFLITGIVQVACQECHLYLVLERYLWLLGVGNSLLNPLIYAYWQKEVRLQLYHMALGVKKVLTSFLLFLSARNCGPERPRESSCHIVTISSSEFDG
# Assay remarks: Agonist activity at human GPR119 overexpressed in CHO cells assessed as increase in cellular cAMP production by HTRF method
// field semantics: pEC50 = negative decimal log of concentration (mol/L)

>>> observed_value("COC(=O)[C@@]1(Cc2cccc(F)c2)NCc2cnc3c(-c4ccc(C(F)(F)F)cc4)c(C(N)=O)nn3c21")
7.70
>>> observed_value("Fc1cccc(CC2(C3CC3)NCc3cnc4c(-c5ccc(C(F)(F)F)cc5)cnn4c32)c1 (racemic)")
7.68
>>> observed_value("CCOC(=O)[C@@]1(Cc2ccccc2)CCCc2cnc3c(-c4ccc(C(F)(F)F)cc4)cnn3c21")
8.10
>>> observed_value("CCOC(=O)[C@](C)(Cc1ccccc1)c1c(C)cnc2c(-c3ccc(C(F)(F)F)cc3)cnn12")
9.00
>>> observed_value("COC(=O)C1(Cc2ccccc2)COc2cnc3c(-c4ccc(C(F)(F)F)cc4)cnn3c21 (racemic)")
7.96
>>> observed_value("CCOC(=O)[C@@]1(Cc2ccccc2)CNc2cnc3c(-c4ccc(C(F)(F)F)cc4)cnn3c21")
7.60
>>> observed_value("CC1(Cc2cccc(F)c2)NCc2cnc3c(-c4ccc(C(F)(F)F)cc4)cnn3c21 (racemic)")
6.36

Please turn your attention to the following entry.
[Q] Look up pEC50 for this molecule: COC(=O)[C@@]1(Cc2cccc(F)c2)NCc2cnc3c(-c4ccc(C(F)(F)F)cc4)cnn3c21
[A] 8.52
